Tested on: MDA-N
assay_details: NCI tumour cell line growth inhibition, 48 h
value_type: TGI

- molecule: "CC1CC(N)=Nc2ccccc2N1 (stereo unspecified)"
  value_type: "TGI"
  reported_value: "> 100 µM"
- molecule: "CC(=O)c1c2c(cc3c1CC1(Cc4ccccc4C1=O)C3)CCC2 (stereo unspecified)"
  value_type: "TGI"
  reported_value: "> 100 µM"
- molecule: "O=C1OC[C@@H]2Cc3cc4c(cc3[C@H](c3ccc5c(c3)OCO5)[C@@H]12)OCO4"
  value_type: "TGI"
  reported_value: "21.6 µM"
- molecule: "CC(=O)n1nc(-c2ccccc2)n(/N=C/c2ccc([N+](=O)[O-])cc2)c1=O"
  value_type: "TGI"
  reported_value: "> 100 µM"
- molecule: "CNc1ccc(OC)cc1S(=O)(=O)c1ccccc1[N+](=O)[O-]"
  value_type: "TGI"
  reported_value: "> 100 µM"
- molecule: "Nc1nc(Cl)c(N)c(NC23CC4CC(CC(C4)C2)C3)n1"
  value_type: "TGI"
  reported_value: "3.31 µM"
- molecule: "COc1ccc(N=C2SC(=N/N=c3\\sc4ccccc4n3C)SC2=Nc2ccc(OC)cc2)cc1"
  value_type: "TGI"
  reported_value: "> 100 µM"
- molecule: "NNC(N)Nc1ccccc1 (stereo unspecified)"
  value_type: "TGI"
  reported_value: "> 100 µM"
- molecule: "CCC1(CC)SCc2nc3ccccc3n21"
  value_type: "TGI"
  reported_value: "> 100 µM"
- molecule: "c1ccc2sc(C3(N4CCCC4)CCCCCC3)cc2c1"
  value_type: "TGI"
  reported_value: "32.1 µM"
- molecule: "COc1cc(/C=C2\\CCC(C)C3C2=NN(C(C)=O)C3c2cc(OC)c(OC)c(OC)c2)cc(OC)c1OC (stereo unspecified)"
  value_type: "TGI"
  reported_value: "> 100 µM"

====

Below: a set of entries, each annotated with reported TGI.
System: SK-MEL-5 melanoma
assay_details: NCI tumour cell line growth inhibition, 48 h
value_type: TGI

- molecule: "COc1cc(C2c3cc4c(cc3OC(N3CCCC3)C2C)OCO4)cc(OC)c1O (stereo unspecified)"
  assayed_target: "SK-MEL-5 melanoma"
  value_type: "TGI"
  reported_value: "40.5 µM"
- molecule: "CC1=Nc2ccccc2C1C(Cc1ccccc1N)c1c(C)[nH]c2ccccc12 (stereo unspecified)"
  assayed_target: "SK-MEL-5 melanoma"
  value_type: "TGI"
  reported_value: "27.8 µM"
- molecule: "CCC(=O)NC(Nc1cccc(F)c1C)(C(F)(F)F)C(F)(F)F"
  assayed_target: "SK-MEL-5 melanoma"
  value_type: "TGI"
  reported_value: "> 100 µM"
- molecule: "c1ccc2sc(C3(N4CCCC4)CCCCCC3)cc2c1"
  assayed_target: "SK-MEL-5 melanoma"
  value_type: "TGI"
  reported_value: "33.9 µM"
- molecule: "Cc1ccc(C(SCC(N)C(=O)O)(c2ccccc2)c2ccc(C)cc2)cc1 (stereo unspecified)"
  assayed_target: "SK-MEL-5 melanoma"
  value_type: "TGI"
  reported_value: "13.8 µM"
- molecule: "Oc1[nH]c2ccccc2c1N=Nc1ccccc1Cl"
  assayed_target: "SK-MEL-5 melanoma"
  value_type: "TGI"
  reported_value: "> 100 µM"
- molecule: "COC(=O)C(C)(NC(=O)C(CC(=O)OC(C)(C)C)NC(=O)OC(C)(C)C)c1ccccc1 (stereo unspecified)"
  assayed_target: "SK-MEL-5 melanoma"
  value_type: "TGI"
  reported_value: "> 100 µM"
- molecule: "O=S(=O)(c1ccccc1)n1c2cc3cccnc3nc2c2cccnc21"
  assayed_target: "SK-MEL-5 melanoma"
  value_type: "TGI"
  reported_value: "> 100 µM"
- molecule: "CS(=O)(=O)N/N=C/CN1C(=O)c2ccccc2C1=O"
  assayed_target: "SK-MEL-5 melanoma"
  value_type: "TGI"
  reported_value: "> 100 µM"
- molecule: "NS(=O)(=O)c1nn2c(Br)c(-c3ccccc3)nc2s1"
  assayed_target: "SK-MEL-5 melanoma"
  value_type: "TGI"
  reported_value: "6.48 µM"
- molecule: "NC(=O)C(N)Cc1ccc(O)cn1 (stereo unspecified)"
  assayed_target: "SK-MEL-5 melanoma"
  value_type: "TGI"
  reported_value: "> 100 µM"
